Vd for assorted compounds
Assay: Volume of distribution at steady state in portal vein-cannulated rat
Format: ADME, organism-based
Settings: in vivo, read-out: Vdss
Could you give me the number in L/kg? Just the number is fine.

Cc1ncoc1-c1nnc(SCCCN2CCOC(c3ccc(C(F)(F)F)cc3)C2)n1C (stereo in doubt; 9)	2.5

Shifting focus to the compound that follows.
Given Cc1ncoc1-c1nnc(SCCCN2CCOC(c3ccc(F)cc3)C2)n1C (stereo in doubt; 7) , respond with its Vd.
2.61

* * *

pIC50 for assorted compounds
Molecular target: Cytochrome P450 3A4 (Homo sapiens, UniProt P08684)
Sequence (P08684 whole entry): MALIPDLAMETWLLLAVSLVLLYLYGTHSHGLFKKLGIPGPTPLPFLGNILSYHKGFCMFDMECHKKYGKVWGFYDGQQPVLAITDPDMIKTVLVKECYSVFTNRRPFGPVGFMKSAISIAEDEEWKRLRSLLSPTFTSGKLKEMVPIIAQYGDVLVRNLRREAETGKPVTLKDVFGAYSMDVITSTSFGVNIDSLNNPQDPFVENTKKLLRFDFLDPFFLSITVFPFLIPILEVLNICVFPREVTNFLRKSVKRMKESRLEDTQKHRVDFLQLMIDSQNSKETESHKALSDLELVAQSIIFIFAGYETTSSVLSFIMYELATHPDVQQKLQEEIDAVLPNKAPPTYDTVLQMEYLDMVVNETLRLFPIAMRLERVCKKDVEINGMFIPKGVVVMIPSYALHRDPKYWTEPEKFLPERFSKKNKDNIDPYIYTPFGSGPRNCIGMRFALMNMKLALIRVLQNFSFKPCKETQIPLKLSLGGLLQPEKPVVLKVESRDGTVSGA
Experiment: Inhibition of human CYP3A4 expressed in bactosome using 7BQ as substrate
Format: ADME
pIC50: −log10 of the molar value.

Worked set:
Cc1ncoc1-c1nnc(SCCCN2CCOC(c3ccc(F)cc3)C2)n1C (stereo in doubt; 7)	< 4.52
Cn1c(SCCCN2CCOC(c3ccc(C(F)(F)F)cc3)C2)nnc1-c1ccc(C(N)=O)cc1 (stereo in doubt; 26)	< 4.52
Cn1c(SCCCN2CCOC(c3ccc(C(F)(F)F)cc3)C2)nnc1-c1ccc(-c2ncco2)cc1 (stereo in doubt; 34)	< 5.52

Given Cc1ncoc1-c1nnc(SCCCN2CCOC(c3ccc(C(F)(F)F)cc3)C2)n1C (stereo in doubt; 9) , respond with its pIC50.
< 5.22

* * *

fraction unbound for assorted molecules
Assay: Fraction unbound in portal vein-cannulated rat brain
Format: ADME, tissue-based
Simply state the number, no unit and no words.

Worked set:
Cn1c(SCCCN2CCOC(c3ccc(C(F)(F)F)cc3)C2)nnc1-c1ccc(-c2ncco2)cc1 (stereo in doubt; 34)	0.005
Cc1ncoc1-c1nnc(SCCCN2CCOC(c3ccc(C(F)(F)F)cc3)C2)n1C (stereo in doubt; 9)	0.071

Given Cn1c(SCCCN2CCOC(c3ccc(C(F)(F)F)cc3)C2)nnc1-c1ccc(C(N)=O)cc1 (stereo in doubt; 26) , respond with its fraction unbound.
0.03

* * *

Assay: Intrinsic clearance in rat liver microsomes assessed per mg of protein
Format: ADME
Settings: read-out: CLH
microsomal CLint for assorted molecules
Could you give me the number in µL/min/mg? Just the number is fine.

Cn1c(SCCCN2CCOC(c3ccc(C(F)(F)F)cc3)C2)nnc1-c1ccc(C(N)=O)cc1 (stereo in doubt; 26)	16.3

Shifting focus to the molecule that follows.
Given Cn1c(SCCCN2CCOC(c3ccc(C(F)(F)F)cc3)C2)nnc1-c1ccc(-c2ncco2)cc1 (stereo in doubt; 34) , respond with its microsomal CLint.
114

* * *

Record set of Ki for target or system Muscarinic acetylcholine receptor M1 (Homo sapiens, UniProt P11229).
Could you give me the number in µM? Just the number is fine.

Worked set:
Cc1ncoc1-c1nnc(SCCCN2CCOC(c3ccc(F)cc3)C2)n1C (stereo in doubt; 7)	3.16
Cc1ncoc1-c1nnc(SCCCN2CCOC(c3ccc(C(F)(F)F)cc3)C2)n1C (stereo in doubt; 9)	1

Shifting focus to the compound that follows.
// output Ki; input Cn1c(SCCCN2CCOC(c3ccc(C(F)(F)F)cc3)C2)nnc1-c1ccc(C(N)=O)cc1 (racemic) ; system Muscarinic acetylcholine receptor M1 (Homo sapiens, UniProt P11229)
1

* * *

fraction unbound for assorted compounds
Experiment: Fraction unbound in portal vein-cannulated rat blood
Type: ADME, tissue-based

Worked set:
Cc1ncoc1-c1nnc(SCCCN2CCOC(c3ccc(C(F)(F)F)cc3)C2)n1C (stereo in doubt; 9)	0.062
Cn1c(SCCCN2CCOC(c3ccc(C(F)(F)F)cc3)C2)nnc1-c1ccc(-c2ncco2)cc1 (stereo in doubt; 34)	0.008
Cc1ncoc1-c1nnc(SCCCN2CCOC(c3ccc(F)cc3)C2)n1C (stereo in doubt; 7)	0.17

Shifting focus to the compound that follows.
Given Cn1c(SCCCN2CCOC(c3ccc(C(F)(F)F)cc3)C2)nnc1-c1ccc(C(N)=O)cc1 (stereo in doubt; 26) , respond with its fraction unbound.
0.045
